target: Human M4 (Homo sapiens, UniProt P08173); test: mAChR M4 cell-based functional assay (calcium flux, potentiation of ACh EC20 response); parameters: dose or concentration left out as unconfirmed
VALUE TYPE: Emax (%)

- MOLECULE: "Cc1c(C(F)F)nnc2sc3c(N4CCCC4)ncnc3c12"
  Emax [%]: 83.5
- MOLECULE: "Cc1c(C(F)F)nnc2sc3c(NCc4ccc(C5(O)CCC5)cc4)ncnc3c12"
  Emax [%]: 95.5
- MOLECULE: "Cc1c(C(F)F)nnc2sc3c(NCc4ccc(C(C)(O)C5CC5)cc4)ncnc3c12 (stereo not drawn)"
  Emax [%]: 95.5
- MOLECULE: "Cc1c(C(F)F)nnc2sc3c(N4CCOCC4)ncnc3c12"
  Emax [%]: 72.2
- MOLECULE: "COc1ccc(CNc2ncnc3c2sc2nnc(C(F)F)c(C)c23)cc1F"
  Emax [%]: 79.8
- MOLECULE: "[2H]C([2H])(Nc1ncnc2c1sc1nnc(C(F)F)c(C)c12)c1ccc(C(C)(C)O)cc1"
  Emax [%]: 95.8

###

Molecular target: Human M4 (Homo sapiens, UniProt P08173)
Sequence (P08173 1-479): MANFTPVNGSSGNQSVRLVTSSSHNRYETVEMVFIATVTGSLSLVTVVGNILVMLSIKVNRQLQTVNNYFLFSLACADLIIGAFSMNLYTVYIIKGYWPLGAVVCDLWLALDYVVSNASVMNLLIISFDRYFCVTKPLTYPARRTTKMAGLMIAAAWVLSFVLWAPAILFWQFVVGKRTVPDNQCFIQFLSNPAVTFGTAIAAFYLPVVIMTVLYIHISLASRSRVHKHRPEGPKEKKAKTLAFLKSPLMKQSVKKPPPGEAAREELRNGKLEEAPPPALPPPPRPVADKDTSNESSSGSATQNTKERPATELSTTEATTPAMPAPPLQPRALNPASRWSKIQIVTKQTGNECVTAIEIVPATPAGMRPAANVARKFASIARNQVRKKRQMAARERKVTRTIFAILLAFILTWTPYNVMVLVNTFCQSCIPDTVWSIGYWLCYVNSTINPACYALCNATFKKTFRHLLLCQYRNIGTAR
Experiment: mAChR M4 cell-based functional assay (calcium flux, potentiation of ACh EC20 response)
Parameters: dose or concentration left out as unconfirmed
VALUE TYPE: Emax (%)

- MOLECULE: "Cc1c(C(F)F)nnc2sc3c(NC4CCCC4)ncnc3c12"
  QUANTITY UNIT: "%"
  RECORDED NUMBER: 95.4
- MOLECULE: "Cc1c(C(F)F)nnc2sc3c(NCc4ccc(C(C)(C)O)cc4)ncnc3c12"
  QUANTITY UNIT: "%"
  RECORDED NUMBER: 98.7
- MOLECULE: "Cc1ccccc1OC1CCN(c2ncnc3c2sc2nnc(C(F)F)c(C)c23)C1 (centres unmarked)"
  QUANTITY UNIT: "%"
  RECORDED NUMBER: 68.7
- MOLECULE: "Cc1c(C(F)F)nnc2sc3c(N4CC(CO)(CO)C4)ncnc3c12"
  QUANTITY UNIT: "%"
  RECORDED NUMBER: 81.9
- MOLECULE: "Cc1c(C(F)F)nnc2sc3c(N4CC5(COC5)C4)ncnc3c12"
  QUANTITY UNIT: "%"
  RECORDED NUMBER: 82.7

###

molecular target: Human M4 (Homo sapiens, UniProt P08173); test: mAChR M4 cell-based functional assay (calcium flux, potentiation of ACh EC20 response)
pEC50: −log10 of the molar value.
VALUE TYPE: pEC50

Would you please look over these solved cases?
- MOLECULE: "Cc1c(C(F)F)nnc2sc3c(N4CC(CO)(CO)C4)ncnc3c12"
  VALUE TYPE: "pEC50"
  RECORDED NUMBER: 5.97
- MOLECULE: "Cc1c(C(F)F)nnc2sc3c(N4CCOCC4)ncnc3c12"
  VALUE TYPE: "pEC50"
  RECORDED NUMBER: 6.24
- MOLECULE: "Cc1c(C(F)F)nnc2sc3c(NCc4ccc(C(C)(O)C5CC5)cc4)ncnc3c12 (stereo not shown)"
  VALUE TYPE: "pEC50"
  RECORDED NUMBER: 6.07

P = COc1ccc(CNc2ncnc3c2sc2nnc(C(F)F)c(C)c23)cc1F
Q = Cc1c(C(F)F)nnc2sc3c(N4CCCC4)ncnc3c12
Hi! Which is lower in terms of pEC50, the first one P or the second one Q ? // output: label of the selected item
P
(P: 6.24, Q: 6.62)

###

assay: In vitro DMPK: human fraction unbound in plasma; assay type: in vitro ADME; conditions: read-out: Human Fu (plasma)
VALUE TYPE: fraction unbound
Answer with a bare number; do not write a unit.

Please fill in: fraction unbound reported for Cc1c(C(F)F)nnc2sc3c(NCc4ccc(C(C)(C)O)cc4)ncnc3c12 = 0.01

###

test: In vitro DMPK: rat fraction unbound in brain; format: in vitro ADME; conditions: read-out: Rat Fu (brain)
VALUE TYPE: fraction unbound
Answer with a bare number; do not write a unit.

Please fill in: fraction unbound reported for Cc1c(C(F)F)nnc2sc3c(NCc4ccc(C(C)(C)O)cc4)ncnc3c12 = 0.006

###

test: In vitro DMPK: rat fraction unbound in plasma; type: in vitro ADME; conditions: read-out: Rat Fu (plasma)
VALUE TYPE: fraction unbound
Answer with a bare number; do not write a unit.

Please fill in: fraction unbound reported for Cc1c(C(F)F)nnc2sc3c(NCc4ccc(C(C)(C)O)cc4)ncnc3c12 = 0.012

###

experiment: In vivo DMPK in rat (plasma clearance, brain:plasma distribution); settings: read-out: Rat CLp
VALUE TYPE: clearance (mL/min/kg)
State the answer as a number, implicitly in mL/min/kg.

Please fill in: clearance reported for Cc1c(C(F)F)nnc2sc3c(NCc4ccc(C(C)(C)O)cc4)ncnc3c12 = 2.67

###

Biological target: Human M4 (Homo sapiens)
Sequence (P08173 1-479): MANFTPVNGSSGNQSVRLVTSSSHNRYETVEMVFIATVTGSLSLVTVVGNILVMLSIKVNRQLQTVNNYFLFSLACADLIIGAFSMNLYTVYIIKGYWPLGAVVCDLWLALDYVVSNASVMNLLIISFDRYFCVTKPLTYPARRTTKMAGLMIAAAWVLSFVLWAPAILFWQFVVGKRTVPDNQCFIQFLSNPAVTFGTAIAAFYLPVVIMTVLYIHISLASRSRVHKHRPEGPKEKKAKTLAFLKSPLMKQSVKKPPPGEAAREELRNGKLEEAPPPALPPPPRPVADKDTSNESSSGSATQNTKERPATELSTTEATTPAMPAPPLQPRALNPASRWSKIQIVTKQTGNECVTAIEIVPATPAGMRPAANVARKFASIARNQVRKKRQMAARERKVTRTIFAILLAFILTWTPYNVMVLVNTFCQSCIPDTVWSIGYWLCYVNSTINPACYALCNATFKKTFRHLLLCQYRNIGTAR
Test: mAChR M4 cell-based functional assay (calcium flux, potentiation of ACh EC20 response)
pEC50: −log10 of the molar value.
VALUE TYPE: pEC50

- SMILES STRUCTURE: "[2H]C([2H])(Nc1ncnc2c1sc1nnc(C(F)F)c(C)c12)c1ccc(C(C)(C)O)cc1"
  EXPERIMENTAL SYSTEM: "Human M4 (Homo sapiens)"
  pEC50: 6.28

1 = Cc1c(C(F)F)nnc2sc3c(NCc4ccc(C5(O)CCC5)cc4)ncnc3c12
2 = Cc1c(C(F)F)nnc2sc3c(NC4CCCC4)ncnc3c12
3 = Cc1c(C(F)F)nnc2sc3c(N4CC5(COC5)C4)ncnc3c12
Hey, quick one: sort these by pEC50, low to high? Dear reader, please state the labels in the requested order.
1, 2, 3
(1: 6.09, 2: 6.57, 3: 7.08)
